The entries below come with measured pIC50 values attached.
tested on: 454973-116-R2-J3-PDC spheroids, viability, % test/control; experiment: Anticancer human tumor 454973-116-R2-J3-PDC patient-derived pancreatic carcinoma cell line growth inhibition [GQUAD]; settings: curve of first compound; second compound 0.0316 µM; spheroids with HUVEC and MSC
Convention used: pIC50 is expressed as -log10 of the molar concentration.

q: Tell me the measured pIC50 of CC[C@@]1(O)C(=O)OCc2c1cc1n(c2=O)Cc2cc3c(CN(C)C)c(O)ccc3nc2-1 + Cc1[nH]c2ccc(F)cc2c1-c1nc2c3cccnc3c3ncccc3c2[nH]1 , please.
a: 7.28

q: Next compound: O=C(NO)c1cnc(N2CCN(S(=O)(=O)c3ccc4ccccc4c3)CC2)nc1 + CN(C)c1ccc(Nc2c3ccc(NC(=O)CCN4CCCC4)cc3nc3cc(NC(=O)CCN4CCCC4)ccc23)cc1
a: 6.67

q: Next compound: CCCS(=O)(=O)Nc1ccc(F)c(C(=O)c2c[nH]c3ncc(-c4ccc(Cl)cc4)cc23)c1F + CN(C)c1ccc(Nc2c3ccc(NC(=O)CCN4CCCC4)cc3nc3cc(NC(=O)CCN4CCCC4)ccc23)cc1
a: 5.27

* * *

test system: 454973-116-R2-J3-PDC spheroids, viability, % test/control; test: Anticancer human tumor 454973-116-R2-J3-PDC cell line growth inhibition [GQUAD]; settings: curve of first compound; second compound 0.316 µM; spheroids with HUVEC and MSC;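 also: spheroids exposed to compounds for seven days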
MEASURED METRIC: IC50

The examples below pair each entry with its known result.
CCc1c2c(nc3ccc(O)cc13)-c1cc3c(c(=O)n1C2)COC(=O)[C@]3(O)CC + CN(C)c1ccc(Nc2c3ccc(NC(=O)CCN4CCCC4)cc3nc3cc(NC(=O)CCN4CCCC4)ccc23)cc1: 0.00152 µM
O=C(c1cc(Cc2n[nH]c(=O)c3ccccc23)ccc1F)N1CCN(C(=O)C2CC2)CC1 + Cc1[nH]c2ccc(F)cc2c1-c1nc2c3cccnc3c3ncccc3c2[nH]1: > 10 µM
CCCS(=O)(=O)Nc1ccc(F)c(C(=O)c2c[nH]c3ncc(-c4ccc(Cl)cc4)cc23)c1F + Cc1cnc(CNC(=O)c2c(=O)c3ccc(N4CCCN(C)CC4)nc3n3c2sc2ccccc23)cn1: 5.08 µM

q: Tell me the measured IC50 of O=c1[nH]cc(F)c(=O)[nH]1 + CN(C)c1ccc(Nc2c3ccc(NC(=O)CCN4CCCC4)cc3nc3cc(NC(=O)CCN4CCCC4)ccc23)cc1 , please.
a: 2.25 µM

q: Next compound: CC(C)n1c(=O)n(C)c2cnc3cc(F)c(-c4ccc(OCCCN5CCCCC5)nc4)cc3c21 + Cc1cnc(CNC(=O)c2c(=O)c3ccc(N4CCCN(C)CC4)nc3n3c2sc2ccccc23)cn1
a: < 0.0316 µM

q: Next compound: COc1cc(C2c3cc4c(cc3C(OC3OC5COC(C)OC5C(O)C3O)C3COC(=O)C23)OCO4)cc(OC)c1O (stereo unspecified) + CN(C)c1ccc(Nc2c3ccc(NC(=O)CCN4CCCC4)cc3nc3cc(NC(=O)CCN4CCCC4)ccc23)cc1
a: 1.09 µM

* * *

test system: 454973-116-R2-J3-PDC spheroids, viability, % test/control; assay: Anticancer human tumor 454973-116-R2-J3-PDC cell line growth inhibition [GQUAD]; conditions: second compound 0.1 µM; first compound 0.316 µM; stronger effect = lower value; spheroids with HUVEC and MSC;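 also: spheroids exposed to compounds for seven days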;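 as to viability, T/C: 100% = DMSO vehicle control viability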
The entries below come with measured viability, T/C values attached.

The examples below pair each entry with its known result.
CC[C@@]1(O)C(=O)OCc2c1cc1n(c2=O)Cc2cc3c(CN(C)C)c(O)ccc3nc2-1 + Cc1cnc(CNC(=O)c2c(=O)c3ccc(N4CCCN(C)CC4)nc3n3c2sc2ccccc23)cn1: 23.1%
Cc1cccc(N(C)C(=O)C2C(O)CCN2c2nc(C)cc(C(F)(F)F)c2C#N)c1 (stereo unspecified) + Cc1cnc(CNC(=O)c2c(=O)c3ccc(N4CCCN(C)CC4)nc3n3c2sc2ccccc23)cn1: 71.9%
Cc1[nH]c2ccccc2c1CCNCc1ccc(/C=C/C(=O)NO)cc1 + Cc1cnc(CNC(=O)c2c(=O)c3ccc(N4CCCN(C)CC4)nc3n3c2sc2ccccc23)cn1: 4.46%
COc1ncnc(C2CC2)c1-c1ncc2cnn(Cc3ccc(-c4nc(C(F)(F)F)cn4C(C)C)cc3)c2n1 + Cc1[nH]c2ccc(F)cc2c1-c1nc2c3cccnc3c3ncccc3c2[nH]1: 107%
C#Cc1c(F)ccc2cc(O)cc(-c3ncc4c(N5CC6CCC(C5)N6)nc(OCC56CCCN5CC(F)C6)nc4c3F)c12 (stereo unspecified) + CN(C)c1ccc(Nc2c3ccc(NC(=O)CCN4CCCC4)cc3nc3cc(NC(=O)CCN4CCCC4)ccc23)cc1: 24.3%

q: Tell me the measured viability, T/C of CCc1c2c(nc3ccc(O)cc13)-c1cc3c(c(=O)n1C2)COC(=O)[C@]3(O)CC + CN(C)c1ccc(Nc2c3ccc(NC(=O)CCN4CCCC4)cc3nc3cc(NC(=O)CCN4CCCC4)ccc23)cc1 , please.
a: 4.95%
